Attribution: PubChem BioAssay (NCI)

System: KM12 colon
Procedure summary: NCI-60 one-dose screen, 48 h (100 = growth as untreated, 0 = no growth, -100 = all killed)
Recorded conditions: 10 µM
About 83,000 compounds went through this panel and 20% of them were active in at least one assay; those are over-represented in the sample as a whole.
Could you please mark true for values of growth below 90% and false for values at or above it?

Please determine if `CCc1ccc(-c2nnc(COc3ccc(-c4nc5cc(Cl)c(Cl)cc5[nH]4)cc3OC)o2)cc1` is below 90% in terms of growth.
true

Param item: `COCCOC(=O)NC(=O)Nc1ccc(/C(=N/O)c2ccc(Cl)cc2)cc1`
true

Param item: `COc1ccc(-c2cn[nH]c2-c2cc(OC)c(OC)c(OC)c2)cc1`
true

Param item: `COc1cc(CSc2nc3ccc(Cl)cc3c(=O)n2-c2ccccc2)cc(OC)c1OC`
true

Param item: `Cc1ccc(Cl)cc1Nc1nc(C(F)(F)F)ccc1C(=O)N/N=C/c1c(Cl)cccc1Cl`
true

Param item: `C/C(=N\NC(=S)N1CCCC1)c1ccccn1`
true

Param item: `COc1ccc2nc(NC(=O)Nc3c(F)cccc3F)sc2c1`
false

Param item: COc1ccc(NC(=O)c2sc3nc4c(cc3c2N)C(O)CCC4)cc1 (configuration not stated)
false

Param item: C[N+]1(CC2CO2)CCCCCC1 (configuration not stated)
false

Param item: `CCNC(=S)NN`
false

Param item: `Nc1ncncc1-c1ccc(F)cc1`
false

Param item: CC1=CSC2=NC(c3ccc(Cl)c(Cl)c3)=CC(c3ccc(Cl)cc3)N12 (configuration not stated)
true

----------
So I've got a bunch of molecules here, and I need their growth values.
Test system: UO-31 renal
Procedure summary: NCI-60 one-dose screen, 48 h (100 = growth as untreated, 0 = no growth, -100 = all killed)
Recorded conditions: 10 µM
Compounds without any hit were thinned out: in the full panel of roughly 83,000, 20% have a hit.
Numbers only here, please. The scale is %.

Please look up its growth: `COC(=O)c1cnc2c(c1)Oc1ccc(Cl)cc1-c1cc(C)nn1-2`
82.8

Param item: `O=C(O)c1cc(C(F)(F)F)cc(C(F)(F)F)c1`
77.8

Param item: `O=C(NCCc1nccs1)c1cnc2c(S)cccc2c1`
12.9

Param item: `O=C(Nc1ccc(OCc2nnc(-c3ccccc3)o2)c(F)c1)Nc1ccc(Cl)c(Cl)c1`
68.5

Param item: `CCCCC(=O)N(c1ccc(Nc2c3ccccc3nc3cc([N+](=O)[O-])ccc23)cc1)S(C)(=O)=O`
36.7

----------
System: SW-620 colon
Procedure summary: NCI-60 one-dose screen, 48 h (100 = growth as untreated, 0 = no growth, -100 = all killed)
Recorded conditions: 10 µM
About 83,000 compounds went through this panel and 20% of them were active in at least one assay; those are over-represented in the sample as a whole.
Where growth equals or exceeds 40%, the correct label is true; where it does not, the label is false.

I'd appreciate it if you could say whether `NC(N)=NS(=O)(=O)c1ccc(Nc2ccc3nnc(-c4ccncc4)n3n2)cc1` has growth at least equal to 40%.
true

Param item: `Clc1cc(Cl)c(OCCCCCCN2CCNCC2)c(Cl)c1`
false

Param item: `COc1ccc(Cn2cc3c(c2-c2ccccc2)CC(C)(C)c2cnoc2-3)cc1`
false

Param item: C[N+]1(CC2CO2)CCCCCC1 (stereo unspecified)
true

Param item: `O=C(NC1CCN(Cc2ccccc2)CC1)c1cc(-c2ccncc2)nc2ccc(Cl)cc12`
false

Param item: `Cc1nn2c(/C=C3/C(=O)Nc4ccc(Cl)cc43)c(-c3ccccc3)nc2s1`
true

Param item: `Nc1ccc2c(c1)Cc1cc(N)c(Cl)cc1-2`
true

Param item: `O=C(O)CN1C(=O)C=CC1=O`
true

Param item: N/C(=N\O)c1cn(C2OC(CO)C(O)C2O)c2ncnc(N)c12 (stereo unspecified)
false

Param item: `CCCN(CCC)CCCNC(=O)c1cc2c(-c3ccc(OC)c(OC)c3)nn(C)c2s1`
false

Param item: `C#Cc1ccc(-n2c(/C=C/c3cc(OC)c(OC)c(OC)c3)nc3ncccc3c2=O)cc1`
true
